- Tested on: Argrobacterium 1 (Agrobacterium sp.)
- testName: relative growth (AUC of 72 h growth curve relative to DMSO control, dAUC) (ratio); higher = more growth (less inhibition), active = hit call of the paper
- runParameters: 20 µM

compound	relative growth
Cc1cc(C)nc(Nc2ccccc2)n1	0.874
Fc1ccc([C@]2(Cn3cncn3)O[C@H]2c2ccccc2Cl)cc1 (racemic)	0.985
O=C(Nc1ccccc1-c1ccc(Cl)cc1)c1cccnc1Cl	0.962
CSc1nc(NC(C)C)nc(NC(C)C)n1	1.03
CC[C@H]1CCC[C@H](O[C@H]2CC[C@H](N(C)C)[C@@H](C)O2)[C@@H](C)C(=O)C2=C[C@@H]3[C@@H](C=C(C)[C@@H]4C[C@@H](O[C@@H]5O[C@@H](C)[C@H](OC)[C@@H](OC)[C@H]5OC)C[C@@H]34)[C@@H]2CC(=O)O1.CC[C@H]1CCC[C@H](O[C@H]2CC[C@H](N(C)C)[C@@H](C)O2)[C@@H](C)C(=O)C2=C[C@H]3[C@@H]4C[C@H](O[C@@H]5O[C@@H](C)[C@H](OC)[C@@H](OC)[C@H]5OC)C[C@H]4C=C[C@H]3C2CC(=O)O1	1.08
CCCSP(=O)(OCC)Oc1ccc(Br)cc1Cl (configuration not stated)	1.12
C#CCN1C(=O)COc2cc(F)c(N3C(=O)C4=C(CCCC4)C3=O)cc21	0.996
